The measured values listed here are drawn from paper PMC4336329.

tested.on: human ether-à-go-go-related gene (hERG) potassium channel (human, UniProt Q12809)
Sequence (Q12809 whole entry, looked up): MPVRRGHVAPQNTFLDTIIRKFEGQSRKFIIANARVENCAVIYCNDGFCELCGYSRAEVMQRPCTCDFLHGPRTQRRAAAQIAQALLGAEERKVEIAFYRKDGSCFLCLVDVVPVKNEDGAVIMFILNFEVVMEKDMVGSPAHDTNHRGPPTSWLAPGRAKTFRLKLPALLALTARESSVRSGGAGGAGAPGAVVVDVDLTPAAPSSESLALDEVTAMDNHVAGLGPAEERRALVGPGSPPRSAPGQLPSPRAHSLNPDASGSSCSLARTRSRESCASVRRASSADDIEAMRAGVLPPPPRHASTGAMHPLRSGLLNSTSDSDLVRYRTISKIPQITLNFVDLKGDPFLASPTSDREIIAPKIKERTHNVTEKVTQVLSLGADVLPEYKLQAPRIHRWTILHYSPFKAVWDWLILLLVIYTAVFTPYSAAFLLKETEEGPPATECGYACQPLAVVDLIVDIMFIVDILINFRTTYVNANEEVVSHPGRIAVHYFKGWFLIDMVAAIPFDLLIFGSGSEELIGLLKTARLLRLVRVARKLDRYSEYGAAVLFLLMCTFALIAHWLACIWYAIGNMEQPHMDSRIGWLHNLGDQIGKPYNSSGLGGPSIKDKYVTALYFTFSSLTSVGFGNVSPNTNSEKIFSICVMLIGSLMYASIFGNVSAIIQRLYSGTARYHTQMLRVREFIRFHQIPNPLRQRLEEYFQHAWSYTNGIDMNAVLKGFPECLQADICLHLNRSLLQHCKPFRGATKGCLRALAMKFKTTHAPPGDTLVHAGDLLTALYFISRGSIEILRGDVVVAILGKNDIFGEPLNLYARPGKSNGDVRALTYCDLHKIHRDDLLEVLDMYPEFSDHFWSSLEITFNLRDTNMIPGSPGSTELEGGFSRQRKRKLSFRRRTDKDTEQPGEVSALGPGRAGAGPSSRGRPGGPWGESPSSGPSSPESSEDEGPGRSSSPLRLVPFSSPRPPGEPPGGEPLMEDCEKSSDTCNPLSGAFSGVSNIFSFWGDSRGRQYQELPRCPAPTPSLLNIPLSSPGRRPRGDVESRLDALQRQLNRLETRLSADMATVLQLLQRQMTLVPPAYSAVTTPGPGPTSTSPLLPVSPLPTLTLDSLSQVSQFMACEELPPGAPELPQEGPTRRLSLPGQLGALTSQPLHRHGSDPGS
assay.summary: primary screen, population patch clamp on CHO cells stably expressing hERG; higher = less effect of the substance
The campaign covered roughly 310,000 compounds. About 14,000 (4.5%) showed an effect of 50% or more. Effects have a minus sign here. Only a selection was taken, and strong results are over-represented in it overall.
The threshold is inclusive: hERG current change (%, negative = inhibition) at 10uM of exactly -20% counts as Fulfilled; values below receive Not fulfilled.

compound=COc1ccc(C(=O)C2CCN(CC(=O)Nc3ccc(OC)cc3OC)CC2)cc1 label=Fulfilled
compound=COc1ccc(NC(=O)CN2CCN(S(=O)(=O)c3ccc(F)cc3)CC2)cc1Cl label=Fulfilled
compound=CC(C)c1ccc(-c2csc3ncnc(N4CCN(C)CC4)c23)cc1 label="Not fulfilled"
compound=COc1cccc(NC(=O)CN2CCN(c3ccccc3F)CC2)c1 label=Fulfilled
compound="Cc1ccc(C(=O)NC(C(=O)NC2CCCC2)c2ccccc2)cc1 (stereo not shown)" label=Fulfilled
compound=Cc1ccc(-c2csc3ncnc(N4CCN(C)CC4)c23)cc1C label=Fulfilled

Ask: Reported hERG current change (%, negative = inhibition) at 10uM at or above -20%? OCCN1CCN(c2ncnc3scc(-c4ccc(F)cc4)c23)CC1
Reply: Not fulfilled

Ask: Please do the same for Cc1ccc(-c2csc3ncnc(N4CCN(Cc5ccccc5)CC4)c23)cc1 as well.
Reply: Fulfilled

Ask: Please do the same for CCN1CCN(c2ncnc3scc(-c4ccc(C)cc4)c23)CC1 as well.
Reply: Not fulfilled

Ask: Please do the same for COc1ccc(NC(=O)CN2CCN(c3nc(-c4ccc(F)cc4)cs3)CC2)c(OC)c1 as well.
Reply: Fulfilled

----------
// reported hERG current change (%, negative = inhibition) at 10uM for each item listed
tested.on: human ether-à-go-go-related gene (hERG) potassium channel (human)
assay.summary: primary screen, population patch clamp on CHO cells stably expressing hERG; higher = less effect of the substance
Screen size: about 310,000 compounds; about 14,000 (4.5%) showed an effect of 50% or more. The effect is printed as a negative number. What follows is part of a selection rich in strong results, with near analogues and random picks from the rest.
Number in %, nothing else.

compound=Cc1cc(=O)[nH]c2nnnn12 assay_result=4.44
compound=CC(C)(C)c1nc2ccc(NS(=O)(=O)c3ccc(F)c(F)c3F)cc2[nH]1 assay_result=10.6
compound=C/C(=C\c1ccccc1)C(=O)NCCCn1ccnc1 assay_result=-10.1
compound=O=C(NCCCn1ccnc1)/C(=C/c1ccc(Cl)cc1)NC(=O)c1ccccc1 assay_result=-74.7

Ask: Param item = COc1cc(NC(=O)c2ccc(Cl)cc2)c(Cl)cc1NC(=O)c1cccnc1 ; retrieve measured hERG current change (%, negative = inhibition) at 10uM.
Reply: 1.74

Ask: Please do the same for COc1ccc(CCNC(=O)c2cc3c(=O)n4cccc(C)c4nc3s2)cc1OC as well.
Reply: 21.3

Ask: Please do the same for COc1ccccc1C(=O)N/C(N)=N/c1nc2ccccc2o1 as well.
Reply: 1.36

Ask: Please do the same for COc1ccc(CCNC(=O)c2cc3c(=O)n4ccccc4nc3n(Cc3ccco3)c2=N)cc1OC as well.
Reply: -76.6

Ask: Please do the same for CSc1ccc(/C=C(/NC(=O)c2ccccc2)C(=O)NCCCn2ccnc2)cc1 as well.
Reply: -60.8

Ask: Please do the same for O=C(c1cccs1)N1CCN=C1SCc1ccccc1 as well.
Reply: 7.77

Ask: Please do the same for O=C(NCCCn1ccnc1)c1cn(-c2ccccc2)nc1-c1ccccc1 as well.
Reply: -47.1

Ask: Please do the same for CC(C)C(=O)Nc1ccc(Sc2ccc(F)cc2)cc1 as well.
Reply: -3.48

Ask: Please do the same for COc1ccc(CCNC(=O)c2ccc3c(=O)n(Cc4ccco4)c(=S)[nH]c3c2)cc1OC as well.
Reply: 17.2

----------
tested.on: human ether-à-go-go-related gene (hERG) potassium channel (human)
assay.summary: primary screen, population patch clamp on CHO cells stably expressing hERG; higher = less effect of the substance
Screen size: about 310,000 compounds; about 14,000 (4.5%) showed an effect of 50% or more. Effects have a minus sign here. Shown is part of a subset that was picked to be rich in strong results.
// reported hERG current change (%, negative = inhibition) at 10uM for each item listed
Number in %, nothing else.

Below, 5 compounds whose answers are already recorded.
compound=C/C(=N\NC(=O)c1ccncc1)c1c(O)[nH]c(=O)[nH]c1=O assay_result=-1.22
compound=CCOc1cc(/C=C2\COc3ccccc3C2=O)ccc1OCC(=O)N(C)C assay_result=-10.3
compound=CCCC1(CCC)C(=O)NC(=NCCc2ccc(OC)c(OC)c2)NC1=O assay_result=13.4
compound="O=C(C1CCCN(S(=O)(=O)c2cccc3nsnc23)C1)N1CCCCCC1 (stereo not shown)" assay_result=-16.8
compound=Nc1c(N(Cc2ccco2)C(=O)COc2ccccc2F)c(=O)[nH]c(=O)n1Cc1ccccc1 assay_result=0.883

Ask: Param item = CCCC12CN3CC(C)(CN(C1)C3c1cccs1)C2=O (stereo not shown) ; retrieve measured hERG current change (%, negative = inhibition) at 10uM.
Reply: -7.68

Ask: Please do the same for Cc1ccc(C)c(Cn2cnc3c(nnn3-c3ccc(F)cc3)c2=O)c1 as well.
Reply: -2.53

Ask: Please do the same for O=C(C1CCC(CNS(=O)(=O)c2cccc3nsnc23)CC1)N1CCN(c2ccccn2)CC1 (stereo not shown) as well.
Reply: -53.9

Ask: Please do the same for CCNC(=O)COc1ccc(/C=C2\COc3ccccc3C2=O)cc1OC as well.
Reply: -71.8

Ask: Please do the same for CCN(Cc1ccccc1)C(=O)c1cccc(S(=O)(=O)N2CCN(Cc3ccccc3)CC2)c1 as well.
Reply: -19.6

----------
tested.on: human ether-à-go-go-related gene (hERG) potassium channel (human, UniProt Q12809)
assay.summary: primary screen, population patch clamp on CHO cells stably expressing hERG; higher = less effect of the substance
Protocol: Briefly, Chinese hamster ovary (CHO) cells stably expressing the hERG channel were dislodged from tissue culture flasks and dispensed into PPC plates. […] During the recording, background leak currents were estimated by a 100 ms step to -80 mV from an initial holding potential of -70 mV and subtracted from the subsequent current measurement. The campaign was conducted in two phases using slight differences in recording protocol. […]
Screen size: about 310,000 compounds; about 14,000 (4.5%) showed an effect of 50% or more. Effects have a minus sign here. The sample holds strong results, similar compounds and a random draw of the others, so the mix is not that of the screen.
The threshold is inclusive: hERG current change (%, negative = inhibition) at 10uM of exactly -20% counts as yes; values below receive no.

Ask: Reported hERG current change (%, negative = inhibition) at 10uM at or above -20%? Cc1ccc(-c2n[nH]c(=S)n2/N=C\c2ccco2)cc1
Reply: yes

Ask: Please do the same for COc1ccc(CC2(CO)CCN(CC3=Cc4cc(Cl)ccc4OC3)CC2)cc1 as well.
Reply: no

----------
tested.on: human ether-à-go-go-related gene (hERG) potassium channel (human, UniProt Q12809)
assay.summary: primary screen, population patch clamp on CHO cells stably expressing hERG; higher = less effect of the substance
Description: Briefly, Chinese hamster ovary (CHO) cells stably expressing the hERG channel were dislodged from tissue culture flasks and dispensed into PPC plates. […] During the recording, background leak currents were estimated by a 100 ms step to -80 mV from an initial holding potential of -70 mV and subtracted from the subsequent current measurement. The campaign was conducted in two phases using slight differences in recording protocol. […]
In all, about 310,000 compounds went through this assay and about 14,000 (4.5%) showed an effect of 50% or more. Effects have a minus sign here. The list comes from a sample in which strong results are over-represented; it also holds close analogues and randomly drawn compounds.
measurement.name: hERG current change (%, negative = inhibition) at 10uM
# include the unit after the value

compound=Cc1ccc(C(=O)OCc2nnc(-c3ccccc3)o2)cc1S(=O)(=O)N1CCOCC1 assay_result=-26.7%
compound=O=C(C[n+]1ccccc1)c1ccc(-c2ccccc2)cc1.[Br-] assay_result=-21.4%
compound=CCOC(=O)c1nn(-c2ccc(C)cc2)c2nc(Nc3ccccc3)cc(=O)n12 assay_result=21.9%

Ask: # get_value(readout= hERG current change (%, negative = inhibition) at 10uM, system= human ether-à-go-go-related gene (hERG) potassium channel (human, UniProt Q12809)) for O=C(NCCO)N1c2ccccc2Sc2ccccc21;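 note: peak tail current of the secondary pulse compared with the same well before compound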
Reply: 5.99%

Ask: Please do the same for Cc1cc(=O)[nH]c(SCC(=O)Nc2ccc(S(=O)(=O)N3CCOCC3)cc2)n1 as well.
Reply: -3.3%

Ask: Please do the same for CC(=O)N1N=C(C)CC1c1ccc(OCc2ccccc2)cc1 (stereo not drawn) as well.
Reply: -15.5%

Ask: Please do the same for Oc1nc(Nc2ccc(Cl)cc2Cl)sc1/C=C1\C=Nc2ccccc21 as well.
Reply: 9.08%

Ask: Please do the same for O=S(=O)(Nc1nc2ccccc2nc1Nc1ccc(N2CCOCC2)cc1)c1cc(Cl)ccc1Cl as well.
Reply: -0.376%

Ask: Please do the same for CN(C(=S)Nc1ccc(Oc2ccccc2)cc1)c1ccc(O)cc1 as well.
Reply: -6.93%
